system: B cell lymphoma cell lines; assay: B cell lymphoma proliferation assay; type: cell-based; details: DHL4 B cell lymphoma cell line, read-out: EC50 (μM) DHL4
assay readout: EC50

Use these answered entries as a reference point.
C=CC(=O)Nc1cccc(Nc2nc(Nc3ccc4c(cnn4C)c3)ncc2F)c1 1 to 10 µM
C=CC(=O)Nc1cccc(Nc2nc(Nc3ccccc3)ncc2C#N)c1 1 to 10 µM
C=CC(=O)Nc1cccc(Oc2nc(Nc3cccc(OC)c3)ncc2C(N)=O)c1 > 10 µM

Record EC50 per entry; entries follow.
1. C=CC(=O)Nc1cccc(Nc2nc(Nc3cccc(OC)c3)ncc2OC)c1
2. C=CC(=O)N1CCc2ccc(Nc3nc(Nc4ccc(OC)nc4)ncc3F)cc21
3. C=CC(=O)Nc1cccc(Nc2nc(Nc3ccccc3)ncc2C)c1
4. C=CC(=O)N1Cc2ccc(Nc3nc(Nc4cccc(OC)c4)ncc3C(F)(F)F)cc2C1
5. C=CC(=O)N1CCC[C@@H](Nc2nc(Nc3cccc(OC)c3)ncc2F)C1

["1 to 10 µM", "1 to 10 µM", "1 to 10 µM", "1 to 10 µM", "> 10 µM"]

---

Assignment: determine reported EC50 for the given compounds.
test system: B cell lymphoma cell lines; assay: B cell lymphoma proliferation assay; assay type: cell-based; conditions: Homo sapiens, WSUDLCL2, WSU-DLCL2 B cell lymphoma cell line, read-out: EC50 (μM) WSU-DLCL2

Use these answered entries as a reference point.
compound	EC50
C=CC(=O)N1CCCC(Nc2nc(Nc3ccccc3)ncc2C)C1 (stereo not shown) [Compound I-27]	> 10 µM
C#CCOc1cccc(Nc2ncc(C)c(Nc3cccc(NC(=O)C=C)c3)n2)c1 [Compound I-35]	1 to 10 µM
CC(C)=CC(=O)c1cccc(Nc2nc(Nc3cccc(OCCN(C)C)c3)ncc2F)c1 [Compound I-207]	1 to 10 µM
C=CC(=O)Nc1cccc(Nc2nc(Nc3ccc(OC)nc3)ncc2F)c1 [Compound I-243]	1 to 10 µM
C=CC(=O)N1CCOc2ccc(Nc3nc(Nc4ccc(OCCOC)cc4)ncc3C(C)=O)cc21 [Compound I-150]	1 to 10 µM

Record EC50 per entry; entries follow.
1. C=CC(=O)Nc1cccc(Oc2nc(Nc3ccc(OC)nc3)ncc2F)c1 [Compound I-217]
2. C=CC(=O)N1Cc2ccc(Nc3nc(Nc4ccc(OC)nc4)ncc3F)cc2C1 [Compound I-165]
3. C=CC(=O)Nc1cccc(Nc2nc(Nc3ccccc3)ncc2C(F)(F)F)c1 [Compound I-245]
4. C=CC(=O)Nc1cccc(Nc2nc(Nc3cccc(OCCN(CC)CC)c3)ncc2F)c1 [Compound I-298]

1. > 10 µM
2. 1 to 10 µM
3. > 10 µM
4. 1 to 10 µM

Record EC50 per entry; entries follow.
1. C=CC(=O)Nc1cccc(Nc2nc(Nc3ccc(OCCOC)cc3)ncc2F)c1 [Compound I-182]
2. C=CC(=O)Nc1cccc(Oc2nc(Nc3ccccc3)ncc2C)c1 [Compound I-248]

1: 1 to 10 µM; 2: 1 to 10 µM

---

Hi! I'm sharing some IC50 results obtained with EGFR-WT (Homo sapiens (Human)).
Sequence (P00533 25-1210): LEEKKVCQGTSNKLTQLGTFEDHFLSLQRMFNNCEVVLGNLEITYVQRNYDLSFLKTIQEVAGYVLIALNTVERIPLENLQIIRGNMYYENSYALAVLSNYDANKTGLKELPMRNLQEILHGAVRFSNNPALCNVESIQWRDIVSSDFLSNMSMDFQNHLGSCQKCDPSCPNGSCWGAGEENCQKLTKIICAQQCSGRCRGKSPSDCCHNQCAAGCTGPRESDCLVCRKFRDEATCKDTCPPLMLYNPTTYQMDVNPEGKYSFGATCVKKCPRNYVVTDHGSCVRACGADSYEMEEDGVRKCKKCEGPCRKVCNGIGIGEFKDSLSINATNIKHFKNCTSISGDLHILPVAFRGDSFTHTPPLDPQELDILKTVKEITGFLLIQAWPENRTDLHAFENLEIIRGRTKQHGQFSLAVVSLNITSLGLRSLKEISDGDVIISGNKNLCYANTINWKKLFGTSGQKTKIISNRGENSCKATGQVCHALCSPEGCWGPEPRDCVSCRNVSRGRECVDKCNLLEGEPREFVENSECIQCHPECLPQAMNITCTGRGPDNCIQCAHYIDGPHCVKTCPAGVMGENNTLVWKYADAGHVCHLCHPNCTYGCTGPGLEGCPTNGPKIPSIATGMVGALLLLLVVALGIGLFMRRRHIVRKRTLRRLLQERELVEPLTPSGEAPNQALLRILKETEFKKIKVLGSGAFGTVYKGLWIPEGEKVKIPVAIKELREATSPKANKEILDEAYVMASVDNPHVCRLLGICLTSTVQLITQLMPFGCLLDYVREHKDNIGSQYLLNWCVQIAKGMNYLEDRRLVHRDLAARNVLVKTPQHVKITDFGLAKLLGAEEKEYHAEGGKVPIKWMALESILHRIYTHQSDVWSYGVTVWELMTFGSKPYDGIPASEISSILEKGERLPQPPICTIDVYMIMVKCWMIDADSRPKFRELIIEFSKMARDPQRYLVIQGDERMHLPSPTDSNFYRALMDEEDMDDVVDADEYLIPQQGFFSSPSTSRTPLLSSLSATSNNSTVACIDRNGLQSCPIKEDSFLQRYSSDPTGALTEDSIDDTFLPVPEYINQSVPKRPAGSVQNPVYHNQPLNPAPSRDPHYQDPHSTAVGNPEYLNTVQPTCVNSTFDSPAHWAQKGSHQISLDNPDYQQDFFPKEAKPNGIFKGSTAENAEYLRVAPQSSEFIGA

Use these answered entries as a reference point.
C=CC(=O)Nc1cccc(Nc2ncc(F)c(Nc3ccc(OCCOC)cc3)n2)c1 < 10 nM
C=CC(=O)Nc1cccc(Nc2nc(Nc3ccc(OCCOCCN=[N+]=[N-])cc3)ncc2F)c1 10 to 100 nM
C=CC(=O)Nc1cccc(Nc2nc(Nc3ccc(OCCOCCNC(=O)OC(C)(C)C)cc3)ncc2F)c1 < 10 nM
C=CC(=O)N1CCOc2ccc(Nc3nc(Nc4ccc(OC)nc4)ncc3C(C)=O)cc21 10 to 100 nM
C=CC(=O)Nc1cccc(Nc2nc(Nc3ccc(O[C@H](C)CO)c(F)c3)ncc2F)c1 10 to 100 nM
C=CC(=O)N1CCC[C@H](Nc2nc(Nc3ccc(OC)nc3)ncc2F)C1 100 to 1000 nM
C=CC(=O)Nc1cccc(Nc2nc(Nc3ccc(OCCOCCOCCN=[N+]=[N-])cc3)ncc2F)c1 100 to 1000 nM
COCCOc1ccc(Nc2ncc(F)c(Nc3ccc(CC(=O)C=C4CCC4)cc3)n2)cc1F 10 to 100 nM

Record IC50 per entry; entries follow.
1. C=CC(=O)Nc1cccc(Nc2nc(Nc3ccc(OCCN=[N+]=[N-])cc3)ncc2F)c1
2. C=CC(=O)Nc1cccc(Oc2nc(Nc3cccc(OC)c3)ncc2C(N)=O)c1
3. C=CC(=O)Nc1cccc(Nc2nc(Nc3ccc(OCCOC)c(OCCOC)c3)ncc2F)c1

["10 to 100 nM", "< 10 nM", "10 to 100 nM"]

---

biological target: BTK (Homo sapiens (Human), UniProt Q06187); assay: Washout experiment with Ramos cells; format: cell-based; conditions: 100 nM compound 1 hour, then washout
Sequence (Q06187 whole entry): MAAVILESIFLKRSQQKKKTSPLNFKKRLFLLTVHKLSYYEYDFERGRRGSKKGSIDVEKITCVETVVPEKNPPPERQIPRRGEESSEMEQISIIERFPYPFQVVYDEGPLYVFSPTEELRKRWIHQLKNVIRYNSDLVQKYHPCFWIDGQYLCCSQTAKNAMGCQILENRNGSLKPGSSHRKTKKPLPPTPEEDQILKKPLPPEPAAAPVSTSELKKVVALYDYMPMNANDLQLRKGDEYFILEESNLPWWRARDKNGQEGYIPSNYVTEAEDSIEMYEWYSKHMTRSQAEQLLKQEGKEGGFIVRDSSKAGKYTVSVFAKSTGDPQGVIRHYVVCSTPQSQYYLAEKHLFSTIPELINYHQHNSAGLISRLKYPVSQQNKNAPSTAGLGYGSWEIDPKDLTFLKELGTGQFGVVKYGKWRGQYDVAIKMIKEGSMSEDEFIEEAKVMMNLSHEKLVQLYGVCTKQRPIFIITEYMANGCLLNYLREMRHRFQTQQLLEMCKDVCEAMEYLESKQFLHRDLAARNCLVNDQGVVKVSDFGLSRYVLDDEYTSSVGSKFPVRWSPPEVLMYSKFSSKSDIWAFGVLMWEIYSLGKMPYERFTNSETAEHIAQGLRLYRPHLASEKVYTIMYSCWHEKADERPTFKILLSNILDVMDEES
assay readout: BTK Inhibition Type

compound	result
C=CC(=O)Nc1cccc(Nc2ncc(C)c(Nc3cccc(C)c3)n2)c1 [Compound I-2]	irreversible
C#CCOc1cccc(Nc2ncc(C)c(Nc3cccc(NC(=O)C=C)c3)n2)c1 [Compound I-35]	irreversible

---

target: BTK (Homo sapiens (Human), UniProt Q06187); experiment: Omnia assay for potency assessment against BTK; format: biochemical; details: [BTK]=5 nm; read-out: BTK Inhibition
pIC50: −log10 of the molar value.
assay readout: pIC50

Use these answered entries as a reference point.
C=CC(=O)Nc1cccc(Oc2nc(Nc3cccc(OC)c3)ncc2C(=O)NC2CC2)c1 > 8.00
C=CC(=O)Nc1cccc(Oc2nc(Nc3cccc(OC)c3)ncc2C(N)=O)c1 > 8.00

Record pIC50 per entry; entries follow.
1. Cc1cccc(Nc2nc(Nc3cccc(NC(=O)/C=C/CN(C)C)c3)ncc2C)c1
2. C=CC(=O)Nc1cccc(Nc2ncc(F)c(Nc3cccc(OCCN4CCOCC4)c3)n2)c1
3. C=CC(=O)N1CCC[C@H](Nc2nc(Nc3ccc(OC)nc3)ncc2F)C1
4. C=CC(=O)Nc1cccc(Nc2nc(Nc3ccc(OCCOCCNC(=O)OC(C)(C)C)cc3)ncc2F)c1
5. C=CC(=O)Nc1cccc(Oc2nc(Nc3cc(OC)c(OC)c(OC)c3)ncc2F)c1

1: > 8.00; 2: 7.00 to 8.00; 3: 6.00 to 7.00; 4: > 8.00; 5: 5.00 to 6.00

Which measured pIC50 value corresponds to `C=CC(=O)N1CCC[C@@H](Oc2nc(Nc3ccc(OC)nc3)ncc2F)C1` ?
> 8.00

---

test system: B cell lymphoma cell lines; assay: B cell lymphoma proliferation assay; type: cell-based; details: Homo sapiens, WSUDLCL2, WSU-DLCL2 B cell lymphoma cell line, read-out: EC50 (μM) WSU-DLCL2
assay readout: EC50

Record EC50 per entry; entries follow.
1. C=CC(=O)N1CCc2cc(Nc3nc(Nc4cccc(S(N)(=O)=O)c4)ncc3C)ccc2C1
2. C=CC(=O)Nc1cccc(Nc2nc(Nc3cccc(OC(F)(F)F)c3)ncc2F)c1
3. C=CC(=O)Nc1cccc(Nc2nc(Nc3ccccc3)ncc2C)c1

1. 1 to 10 µM
2. 1 to 10 µM
3. 1 to 10 µM

Record EC50 per entry; entries follow.
1. C=CC(=O)Nc1cccc(Nc2nc(Nc3ccc(OC)nc3)ncc2C(N)=O)c1
2. C=CC(=O)Nc1cccc(Oc2nc(Nc3cccc(OC)c3)ncc2C(N)=O)c1
3. C=CC(=O)Nc1cccc(Oc2nc(Nc3ccccc3)ncc2F)c1
4. C=CC(=O)Nc1cccc(Nc2nc(Nc3ccccc3)ncc2F)c1
5. C=CC(=O)Nc1cccc(Nc2nc(Nc3ccccc3)ncc2C(N)=O)c1
6. C=CC(=O)Nc1ccc(Nc2nc(Nc3ccccc3)ncc2C)cc1
7. C=CC(=O)Nc1cccc(Nc2nc(Nc3ccc4[nH]ncc4c3)ncc2F)c1

1: 1 to 10 µM; 2: > 10 µM; 3: > 10 µM; 4: 1 to 10 µM; 5: 1 to 10 µM; 6: 1 to 10 µM; 7: 1 to 10 µM

Record EC50 per entry; entries follow.
1. C=CC(=O)Nc1cccc(Nc2nc(Nc3cccc(S(N)(=O)=O)c3)ncc2F)c1
2. C=CC(=O)N1CCOc2ccc(Nc3nc(Nc4ccc(OC)nc4)ncc3F)cc21
3. C=CC(=O)Nc1cccc(Nc2nc(Nc3ccccc3)ncc2C#N)c1

1. 1 to 10 µM
2. 1 to 10 µM
3. 1 to 10 µM

---

tested on: B cell lymphoma cell lines; experiment: B cell lymphoma proliferation assay; type: cell-based; conditions: Homo sapiens, WSUDLCL2, WSU-DLCL2 B cell lymphoma cell line, read-out: EC50 (μM) WSU-DLCL2
assay readout: EC50

Use these answered entries as a reference point.
C=CC(=O)Nc1cccc(Nc2nc(Nc3ccc(OCCOC)nc3)ncc2F)c1 1 to 10 µM
C=CC(=O)Nc1cccc(Nc2nc(Nc3ccc(OC)nc3)ncc2C(C)=O)c1 > 10 µM
C=CC(=O)N1CCc2ccc(Nc3nc(Nc4ccc(OC)nc4)ncc3F)cc21 1 to 10 µM
C=CC(=O)Nc1cccc(Nc2nc(Nc3cccc(OC)c3)ncc2OC)c1 1 to 10 µM
Cc1cccc(Nc2nc(Nc3cccc(NC(=O)/C=C/CN(C)C)c3)ncc2F)c1 0.1 to 1 µM
C=CC(=O)Nc1cccc(Nc2nc(Nc3cccc(OC(C)(C)CO)c3)ncc2F)c1 1 to 10 µM

Record EC50 per entry; entries follow.
1. C=CC(=O)Nc1cccc(Nc2nc(Nc3cccc(OCCCn4ccnc4)c3)ncc2F)c1
2. C=CC(=O)Nc1cccc(Nc2nc(Nc3ccc4c(c3)N(C(=O)C(F)(F)F)CCO4)ncc2F)c1
3. C=CC(=O)Nc1cccc(Nc2nc(Nc3ccc(F)cc3)ncc2F)c1
4. C=CC(=O)Nc1cccc(Nc2nc(Nc3ccc(OCCOC)c(F)c3)ncc2F)c1

1 to 10 µM
1 to 10 µM
1 to 10 µM
1 to 10 µM
